Measured values drawn from patent US20090118223A1 for this set.

Where a name gives a salt, the structure may show the parent alone.
Give measured melting point for each item. Keep answers brief.

Sample answers from the record:
compound	attribute-measured	readout-value
C[C@@]1(O)[C@H](O)[C@@H](COP2(=O)OCC[C@H](c3cccc(Cl)c3)O2)O[C@H]1n1ccc2c(=O)[nH]c(N)nc21 (some centres unmarked) (as salt: trifluoroacetic acid salt)	melting point	170 to 180 °C
CC(=O)O[C@@H]1[C@@H](CO[P@@]2(=O)OCC[C@@H](c3cccc(Cl)c3)O2)O[C@@H](n2ccc3c(N)ncnc32)[C@]1(C)O	melting point	90 to 93 °C
CC(=O)O[C@@H]1[C@@H](CO[P@@]2(=O)OCCC(c3ccncc3)O2)O[C@@H](n2ccc3c(N)ncnc32)[C@]1(C)O (some centres unmarked)	melting point	182 to 185 °C

Dear colleague, could you please provide melting point for the compounds listed below?
1. C[C@@]1(O)[C@H](O)[C@@H](COP2(=O)OCC[C@H](c3ccccc3)O2)O[C@H]1n1ccc2c(=O)[nH]c(N)nc21 (some centres unmarked)
2. C[C@@]1(O)[C@H](O)[C@@H](COP2(=O)OCC[C@@H](c3ccncc3)O2)O[C@H]1n1ccc2c(=O)[nH]c(N)nc21 (some centres unmarked)

128 to 133 °C
138 to 141 °C

----------
assay: Liver targeting of 2′-C-methylcytidine and its prodrugs in rats: liver NTP vs plasma nucleoside (Example K); assay type: in vivo; details: male Sprague-Dawley rats, intraperitoneal, 5 mg/kg nucleoside equivalents; 2′-C-methylcytidine
attribute-measured: Cmax (nM)
Numbers only, in nM.

What measured Cmax goes with CC(C)[C@H](N)C(=O)O[C@@H]1[C@@H](CO[P@@]2(=O)OCC[C@@H](c3cccc(Cl)c3)O2)O[C@@H](n2ccc(N)nc2=O)[C@]1(C)O.O=C(O)C(F)(F)F (relative stereo) [Compound 41.2, trifluoroacetic acid salt] ?
340
